Tested on: Mycosphaerella graminicola; Anamorph: Septoria tritici; Bayer Code SEPTTR (standard laboratory isolate, SI SEPTTR)
Test: Type A (high volume) assay, leaf blotch of wheat, standard laboratory SEPTTR isolate (SI SEPTTR)
Type: in vivo, Mycosphaerella graminicola on wheat plants (variety Yuma)
Details: Zymoseptoria tritici, 72 h, standard laboratory isolate; high volume; 50 ppm; 3 Day Curative; wheat (Yuma); read-out: Disease Control, SI SEPTTR Type A Assay (50 ppm) 3 DC
Description: Example A: Evaluation of Fungicidal Activity: Leaf Blotch of Wheat (Mycosphaerella graminicola; Anamorph: Septoria tritici; Bayer Code SEPTTR) […] Wheat plants (variety Yuma) were grown from seed in a greenhouse in 50% mineral soil/50% soil-less Metro mix until the first leaf was fully emerged, with 7-10 seedlings per pot. […] When disease symptoms were fully expressed on untreated plants, infection levels on treated plants were assessed on a scale of 0 to 100 percent disease severity. […]
Reported pest or weed control at 50 ppm values are given for each entry in this list.
measuredAttribute: pest or weed control at 50 ppm

1) N#Cc1ccc(Oc2ccc(C(O)(Cn3cnnn3)C3CC3)nc2)cc1 (centres unmarked) [Compound 19]; 40 to 59%
2) OC(Cc1ccc(Cl)cc1F)(Cn1cnnn1)c1ccc(-c2ccc(OC(F)(F)F)cc2)cn1 (centres unmarked) [Compound 28]; 40 to 59%
3) OC(C#CC1CC1)(c1cncnc1)c1ccc(Oc2ccc(C(F)(F)F)cc2)cn1 (centres unmarked) [Compound 47]; 80 to 100%
4) CC(C)C(O)(c1cncnc1)c1ccc(Oc2ccc(C(F)(F)F)cc2)cn1 (centres unmarked) [Compound 3]; 80 to 100%
5) CCC(O)(c1cncnc1)c1ccc(Oc2ccc(OC(F)(F)F)cc2)cn1 (centres unmarked) [Compound 32]; 80 to 100%
6) OC(CCc1ccc(Cl)cc1F)(Cn1cnnn1)c1ccc(Oc2ccc(Cl)cn2)cn1 (centres unmarked) [Compound 4]; < 40%
7) OC(C#CC1CC1)(c1cncnc1)c1ccc(Oc2ccc(OC(F)(F)F)cc2)cn1 (centres unmarked) [Compound 48]; < 40%
8) CC(C)C(O)(c1cncnc1)c1ccc(Oc2ccc(Cl)cn2)cn1 (centres unmarked) [Compound 13]; 80 to 100%

###

Test system: Mycosphaerella graminicola; Anamorph: Septoria tritici; Bayer Code SEPTTR (standard laboratory isolate, SI SEPTTR)
Experiment: Type A (high volume) assay, leaf blotch of wheat, standard laboratory SEPTTR isolate (SI SEPTTR)
Assay type: in vivo, Mycosphaerella graminicola on wheat plants (variety Yuma)
Conditions: Zymoseptoria tritici, 72 h, standard laboratory isolate; high volume; 50 ppm; 3 Day Curative; wheat (Yuma); read-out: Disease Control, SI SEPTTR Type A Assay (50 ppm) 3 DC
measuredAttribute: pest or weed control at 50 ppm

1) CC(C)C(O)(c1cncnc1)c1ccc(Oc2ccc(Cl)nc2)cn1 (centres unmarked) [Compound 10]; 80 to 100%
2) OC(Cc1ccc(Cl)cc1F)(Cn1cnnn1)c1ccc(Oc2ccc(Cl)cc2)cn1 (centres unmarked) [Compound 42]; 80 to 100%
3) CCC(O)(c1cncnc1)c1ccc(Oc2ccc(Cl)cn2)cn1 (centres unmarked) [Compound 54]; 40 to 59%
4) CC(O)(Cc1cncnc1)c1ccc(-c2ccc(Cl)cc2)cn1 (centres unmarked) [Compound 25]; 80 to 100%
5) C=CCCC(O)(c1cncnc1)c1ccc(Oc2ccc(Cl)cc2)cn1 (centres unmarked) [Compound 21]; 80 to 100%

###

Test system: Mycosphaerella graminicola; Anamorph: Septoria tritici; Bayer Code SEPTTR (standard laboratory isolate, SI SEPTTR)
Test: Type A (high volume) assay, leaf blotch of wheat, standard laboratory SEPTTR isolate (SI SEPTTR)
Assay type: in vivo, Mycosphaerella graminicola on wheat plants (variety Yuma)
Settings: Zymoseptoria tritici, 24 h, standard laboratory isolate; high volume; 50 ppm; 1 Day Protectant; wheat (Yuma); read-out: Disease Control, SI SEPTTR Type A Assay (50 ppm) 1 DP
In this section we review reported pest or weed control at 50 ppm values for a set of compounds.
measuredAttribute: pest or weed control at 50 ppm

1. CC(C)(C)C(O)(c1cncnc1)c1ccc(-c2ccc(C#N)nc2)cn1 (stereo not shown); 60 to 79%
2. Cc1cc(-c2ccc(CC(F)(F)F)nc2)cnc1C(O)(c1cncnc1)C(C)(C)C (stereo not shown); 80 to 100%
3. OC(C#CC1CC1)(c1cncnc1)c1ccc(Oc2ccc(OC(F)(F)F)cc2)cn1 (stereo not shown); < 40%
4. OC(c1cccnc1)(c1ccc(Oc2ccc(Cl)cn2)cn1)C1CC1 (stereo not shown); 80 to 100%

###

Test system: Mycosphaerella graminicola; Anamorph: Septoria tritici; Bayer Code SEPTTR (standard laboratory isolate, SI SEPTTR)
Assay: Type A (high volume) assay, leaf blotch of wheat, standard laboratory SEPTTR isolate (SI SEPTTR)
Assay type: in vivo, Mycosphaerella graminicola on wheat plants (variety Yuma)
Details: Zymoseptoria tritici, 72 h, standard laboratory isolate; high volume; 50 ppm; 3 Day Curative; wheat (Yuma); read-out: Disease Control, SI SEPTTR Type A Assay (50 ppm) 3 DC
measuredAttribute: pest or weed control at 50 ppm

1) N#Cc1ccc(Oc2ccc(C(O)(CC3CC3)Cn3cnnn3)nc2)cc1 (centres unmarked); 60 to 79%
2) CC(C)(C)C#CC(O)(c1cncnc1)c1ccc(Oc2ccc(Cl)nc2)cn1 (centres unmarked); 60 to 79%
3) CC(C)C(O)(Cn1cnnn1)c1ccc(-c2ccc(OC(F)(F)F)cc2)cn1 (centres unmarked); 60 to 79%
4) N#Cc1ccc(Oc2ccc(C(O)(c3cncnc3)C3CC3)nc2)cc1 (centres unmarked); < 40%
5) Cc1ccc(Oc2ccc(C(O)(c3cncnc3)C(C)C)nc2)nc1 (centres unmarked); < 40%

###

# pest or weed control at 50 ppm per record follows
System: Mycosphaerella graminicola; Anamorph: Septoria tritici; Bayer Code SEPTTR (standard laboratory isolate, SI SEPTTR)
Assay: Type A (high volume) assay, leaf blotch of wheat, standard laboratory SEPTTR isolate (SI SEPTTR)
Assay type: in vivo, Mycosphaerella graminicola on wheat plants (variety Yuma)
Conditions: Zymoseptoria tritici, 72 h, standard laboratory isolate; high volume; 50 ppm; 3 Day Curative; wheat (Yuma); read-out: Disease Control, SI SEPTTR Type A Assay (50 ppm) 3 DC
measuredAttribute: pest or weed control at 50 ppm

1) CC(C)C(O)(Cc1cncnc1)c1ccc(-c2ccc(Cl)cc2)cn1 (centres unmarked); 80 to 100%
2) OC(Cc1cncnc1)(c1ccc(-c2ccc(Cl)cc2)cn1)C1CCCCC1 (centres unmarked); 60 to 79%
3) OC(Cc1cncnc1)(c1ccc(-c2ccc(Cl)cc2)cn1)C(F)(F)F (centres unmarked); 80 to 100%
4) CC(C)(C)C#CC(O)(c1cncnc1)c1ccc(Oc2ccc(C(F)(F)F)cc2)cn1 (centres unmarked); 60 to 79%
5) N#Cc1ccc(Oc2ccc(C(O)(Cn3cnnn3)C(F)(F)c3ccc(F)cc3F)nc2)cc1 (centres unmarked); 40 to 59%
6) CC(C)(C)C(O)(Cn1cnnn1)c1ccc(-c2ccc(OC(F)(F)F)cc2)cn1 (centres unmarked); 40 to 59%
7) CC(C)(C)C#CC(O)(c1cncnc1)c1ccc(Oc2ccc(OC(F)(F)F)cc2)cn1 (centres unmarked); 60 to 79%
8) OC(Cc1cncnc1)(c1ccc(-c2ccc(Cl)cc2)cn1)C1CC1 (centres unmarked); 80 to 100%

###

Test system: Mycosphaerella graminicola; Anamorph: Septoria tritici; Bayer Code SEPTTR (standard laboratory isolate, SI SEPTTR)
Assay: Type A (high volume) assay, leaf blotch of wheat, standard laboratory SEPTTR isolate (SI SEPTTR)
Type: in vivo, Mycosphaerella graminicola on wheat plants (variety Yuma)
Details: Zymoseptoria tritici, 72 h, standard laboratory isolate; high volume; 50 ppm; 3 Day Curative; wheat (Yuma); read-out: Disease Control, SI SEPTTR Type A Assay (50 ppm) 3 DC
measuredAttribute: pest or weed control at 50 ppm

1) CC(C)C(O)(Cn1cnnn1)c1ccc(-c2ccc(OCC(F)(F)F)nc2)cn1 (stereo not drawn); 40 to 59%
2) OC(c1cncnc1)(c1ccc(Oc2ccc(C(F)(F)F)cc2)cn1)C1CC1 (stereo not drawn); 80 to 100%
3) OC(CCc1ccc(Cl)cc1F)(Cn1cnnn1)c1ccc(Oc2ccc(C(F)(F)F)cn2)cn1 (stereo not drawn); < 40%
4) CC(C)(C)C(O)(c1cncnc1)c1ccc(Oc2ccc(Cl)cc2)cn1 (stereo not drawn); < 40%
5) CC(C)(C)C#CC(O)(c1cncnc1)c1ccc(Oc2ccc(Cl)cc2)cn1 (stereo not drawn); 80 to 100%
6) OC(Cc1cncnc1)(c1ccc(-c2ccc(Cl)cc2)cn1)C1CCCC1 (stereo not drawn); 80 to 100%
7) C=CCCC(O)(c1cncnc1)c1ccc(Oc2ccc(OC(F)(F)F)cc2)cn1 (stereo not drawn); 80 to 100%
8) CC(C)C(O)(Cn1cnnn1)c1ccc(Oc2ccc(C#N)cc2)cn1 (stereo not drawn); < 40%
9) CCC(O)(c1cncnc1)c1ccc(Oc2ccc(Cl)nc2)cn1 (stereo not drawn); 60 to 79%
10) CC(C)C(O)(c1cncnc1)c1ccc(-c2ccc(OCC(F)(F)F)nc2)cn1 (stereo not drawn); 80 to 100%
11) CCC(O)(c1cncnc1)c1ccc(Oc2ccc(C(F)(F)F)cc2)cn1 (stereo not drawn); 60 to 79%
12) CC(C)(C)C(O)(Cc1cncnc1)c1ccc(-c2ccc(Cl)cc2)cn1 (stereo not drawn); 80 to 100%
13) CC(C)C(O)(c1cncnc1)c1ccc(Oc2ccc(C(F)(F)F)cn2)cn1 (stereo not drawn); 80 to 100%
14) CC(C)(C)C(O)(c1cncnc1)c1ccc(-c2ccc(OC(F)(F)F)cc2)cn1 (stereo not drawn); 80 to 100%
15) CCC(C)(C)C(O)(Cc1cncnc1)c1ccc(-c2ccc(Cl)cc2)cn1 (stereo not drawn); 80 to 100%
16) OC(c1cncnc1)(c1ccc(Oc2ccc(Cl)cn2)cn1)C1CC1 (stereo not drawn); 80 to 100%
17) OC(CCc1ccc(F)cc1F)(Cn1cnnn1)c1ccc(Oc2ccc(Cl)cn2)cn1 (stereo not drawn); < 40%
18) OC(c1cncnc1)(c1ccc(Oc2ccc(Cl)cc2)cn1)C1CC1 (stereo not drawn); 80 to 100%
